assayedSystem: human CCR6 (Homo sapiens)
Construct: expressed in transfected cells; host or cells: HEK-293
Sequence (P51684 whole entry): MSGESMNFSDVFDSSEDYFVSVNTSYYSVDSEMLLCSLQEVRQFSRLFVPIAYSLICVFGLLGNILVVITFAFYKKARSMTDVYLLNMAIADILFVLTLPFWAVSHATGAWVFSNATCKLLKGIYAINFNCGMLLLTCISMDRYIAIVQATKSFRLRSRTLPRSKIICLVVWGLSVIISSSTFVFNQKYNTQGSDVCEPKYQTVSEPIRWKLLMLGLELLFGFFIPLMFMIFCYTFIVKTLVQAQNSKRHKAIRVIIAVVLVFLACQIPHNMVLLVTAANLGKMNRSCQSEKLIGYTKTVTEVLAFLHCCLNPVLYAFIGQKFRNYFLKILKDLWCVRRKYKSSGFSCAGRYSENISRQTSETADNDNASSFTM
testSummary: FLIPR assay (inhibition of CCL20-induced calcium signal)
Assay type: cell-based
experimentalSetup: HEK-293 cells expressing human CCR6; mean values where determined several times; read-out: FLIPR IC50
Method: FLIPR assay: The bioactivity of compounds is tested in a fluorometric imaging plate reader (FLIPR: Molecular Devices) using engineered HEK-293 cells expressing the human CCR6 (GenBank: AY242126). […] Changes in fluorescence are monitored before and after addition of the test compounds and agonist. […] The calculated IC50 values may fluctuate depending on the daily assay performance. […]
measurementKind: IC50 (nM)

1) CC(C)c1ccc([C@](O)(c2cncc(-c3noc(CC4CCCO4)n3)c2)C2(C)CN(C)C2)cc1 (some centres unmarked) [Example 116] ... 40.8
2) CN1CC(C)([C@](O)(c2ccc(C(F)(F)F)cc2)c2cncc(-c3noc(C(C)(C)O)n3)c2)C1 [Example 571] ... 1190
3) CC(C)c1ccc([C@](O)(c2cncc(C#CC(C)(O)c3ccnc(C(F)(F)F)n3)c2)C2(C)CN(C)C2)cc1 (single isomer, unassigned) [Example 652] ... 10.9
4) CC(C)c1ccc([C@](O)(c2cncc(CCC3(O)CCCc4cccnc43)c2)C2(C)CN(C)C2)cc1 (some centres unmarked) [Example 77] ... 52.1
5) CC(C)c1ccc([C@](O)(c2cncc(CCC(C)(C)N3CCCC3=O)c2)C2(C)CN(C)C2)cc1 [Example 639] ... 96.6
6) CC(=O)N1CCC(c2nc(-c3cncc([C@@](O)(c4ccc(C(C)C)cc4)C4(C)CN(CCC(F)(F)F)C4)c3)no2)CC1 [Example 583] ... 239
7) CC(C)c1ccc([C@](O)(c2cncc(-c3noc(CS(C)(=O)=O)n3)c2)C2(C)CN(C)C2)cc1 [Example 103] ... 110
8) CC(C)c1ccc([C@](O)(c2cncc(-c3ncc(C4CCOCC4)o3)c2)C2(C)CN(C)C2)cc1 [Example 323] ... 67.8
9) CC(C)c1ccc([C@](O)(c2cncc(C#CCCO)c2)C2(C)CN(C)C2)cc1 [Example 22] ... 126
10) CCc1ccc(C(O)(c2cncc(N3CCCC3)c2)C2(C)CN(C)C2)cc1 (centres unmarked) [Example 152] ... 60.2
11) Cc1cc(C(C)(O)CCc2cncc([C@@](O)(c3ccc(C(C)C)cc3)C3(C)CN(C)C3)c2)nn1C (some centres unmarked) [Example 74] ... 154
12) CCCc1ccc([C@](O)(c2cncc(-c3nc(COC4CCOCC4)no3)c2)C2(C)CN(C)C2)cc1 [Example 85] ... 89.9
13) CC(C)c1ccc([C@](O)(c2cncc(-c3noc(C4CCN(C(=O)C5CCOCC5)CC4)n3)c2)C2(C)CN(C)C2)cc1 [Example 376] ... 102
14) CC(C)c1ccc([C@](O)(c2cncc(-c3noc(C4(F)CCOCC4)n3)c2)C2(C)CN(C)C2)cc1 [Example 124] ... 35.9
15) CC(C)c1ccc([C@](O)(c2cncc(N3CC(c4cnn(C(F)F)c4)CC3=O)c2)C2(C)CN(C)C2)cc1 (some centres unmarked) [Example 678] ... 156
16) CC(C)c1ccc([C@](O)(c2cncc(C#CC(C)(O)c3ncccn3)c2)C2(C)CN(C)C2)cc1 (some centres unmarked) [Example 38] ... 130
17) CN1CC(C)([C@](O)(c2ccc(C3CC3)cc2)c2cncc(-c3nc(COC4CCC4)no3)c2)C1 [Example 84] ... 52.8
18) Cc1cc([C@](O)(c2cncc(-c3noc(C(C)(C)O)n3)c2)C2(C)CN(C)C2)ccc1C(C)C [Example 544] ... 257
19) CC(=O)N1CCC(c2nc(-c3cncc([C@@](O)(c4ccc(C(C)C)cc4)C4(C)CN(CCO)C4)c3)no2)CC1 [Example 580] ... 294
20) CC1([C@](O)(c2ccc(OC(F)(F)F)cc2)c2cncc(N3CCCC3)c2)CN(C2CCC2)C1 [Example 7] ... 54.3
21) CC(C)c1ccc([C@](O)(c2cncc(C#CC3(O)CCCC3)c2)C2(C)CN(C)C2)cc1 [Example 18] ... 33.5
22) CC(C)c1ccc([C@](O)(c2cncc(CC(F)(F)CO)c2)C2(C)CN(C)C2)cc1 [Example 321] ... 273
23) CC(C)c1ccc([C@](O)(c2cncc(-c3nc(C4CCN(S(C)(=O)=O)CC4)no3)c2)C2(C)CN(C)C2)cc1 [Example 527] ... 74.3
24) CC(C)c1ccc([C@](O)(c2cncc(-c3noc(C4CC45CCOCC5)n3)c2)C2(C)CN(C)C2)cc1 (some centres unmarked) [Example 114] ... 38
25) CC(C)c1ccc([C@](O)(c2ccnc(-c3noc(C4CCOCC4)n3)c2)C2(C)CN(C)C2)cc1 [Example 329] ... 485
26) COCC(=O)N1CCC(c2noc(-c3cncc([C@@](O)(c4ccc(C(C)C)cc4)C4(C)CN(C)C4)c3)n2)CC1 [Example 526] ... 171
27) CC(C)c1ccc([C@](O)(c2cncc(C#Cc3cnn(C)c3)c2)C2(C)CN(C)C2)cc1 [Example 23] ... 46.8
28) CC(C)c1ccc([C@](O)(c2cncc(CCC(C)(C)N3CCOC3=O)c2)C2(C)CN(C)C2)cc1 [Example 638] ... 509
29) COCCS(=O)(=O)N1CCC(c2nc(-c3cncc([C@@](O)(c4ccc(C(C)C)cc4)C4(C)CN(C)C4)c3)no2)CC1 [Example 384] ... 42.1
